# TEST SYSTEM: recombinant hIRE-1 (Homo sapiens (Human))
# Sequence (O75460 547-977): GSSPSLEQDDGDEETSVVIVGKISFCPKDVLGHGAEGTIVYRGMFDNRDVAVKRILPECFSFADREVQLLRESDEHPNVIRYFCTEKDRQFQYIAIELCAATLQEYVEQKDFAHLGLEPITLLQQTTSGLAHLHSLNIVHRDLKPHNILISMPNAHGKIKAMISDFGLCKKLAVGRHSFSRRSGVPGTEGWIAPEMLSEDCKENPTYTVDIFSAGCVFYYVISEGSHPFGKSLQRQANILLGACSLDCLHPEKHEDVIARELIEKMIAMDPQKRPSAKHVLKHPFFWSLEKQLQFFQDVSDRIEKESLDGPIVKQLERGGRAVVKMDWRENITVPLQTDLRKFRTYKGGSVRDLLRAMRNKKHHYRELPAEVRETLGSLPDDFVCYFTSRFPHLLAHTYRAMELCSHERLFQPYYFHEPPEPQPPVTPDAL
# PROCEDURE SUMMARY: In vitro IRE-1 RNase FRET-suppression assay
# Type: biochemical
# STUDY CONDITIONS: text values of Example 3, unit printed as mM; read-out: IC50 in FRET-suppression assay
# IC50 annotations
Just the number please, in mM, no unit attached.

O=S(=O)(N=Cc1c(O)ccc2ccccc12)c1cccs1 [STF-083010]
9.94

Switching to the query record.
Looking for the measured IC50 of O=Cc1c(O)ccc2ccccc12 [A-I06, 2-hydroxynaphthaldehyde] , can you help?
9.73
